Please provide measured TGI for the entries that follow.
- Test system: OVCAR-5 ovarian
- test-description: NCI tumour cell line growth inhibition, 48 h
Numbers only, in µM.

Use these answered entries as a reference point.
[
  {
    "compound": "C/C(=N\\NC(N)=S)c1nc2ccc(Cl)cc2[nH]1",
    "TGI, µM": 18.1
  },
  {
    "compound": "O=Cc1ccc(-c2cccs2)s1",
    "TGI, µM": 69.7
  }
]

Next up:
IN: Consider the compound CCC(c1cccc(O)c1)C(CC)c1cccc(O)c1 (stereo unspecified) . State its measured TGI.
OUT: 24.3

====

- System: M14 melanoma
- test-description: NCI tumour cell line growth inhibition, 48 h
measurement-name: GI50

Use these answered entries as a reference point.
[
  {
    "compound": "Cc1cc(-c2nnc3n2CCCCC3)c(C)n1-c1ccc(Cl)c(Cl)c1",
    "GI50": "14.9 µM"
  },
  {
    "compound": "COc1ccc(C2CC(n3nnnc3-c3ccccc3)=NN2)cc1 (stereo unspecified)",
    "GI50": "0.6 µM"
  },
  {
    "compound": "O=[N+]([O-])c1ccc2c(c1)[O][Sn][O]2",
    "GI50": "23.8 µg/mL"
  },
  {
    "compound": "CC[C@@]1(O)C(=O)OCc2c1cc1n(c2=O)Cc2cc3cc(N)ccc3nc2-1",
    "GI50": "0.0162 µM"
  },
  {
    "compound": "Cc1cc(N/N=C/c2nc(-c3ccc(Cl)cc3)oc2C)c2cc(Cl)ccc2n1",
    "GI50": "1.96 µM"
  }
]

Next up:
IN: Give measured GI50 for Cn1cc(CNCC2CCN(c3ncc(C(=O)NO)cn3)CC2)c2ccccc21 (M14 melanoma).
OUT: 0.0114 µM

====

Please provide measured TGI for the entries that follow.
- Tested on: EKVX NSCLC
- test-description: NCI tumour cell line growth inhibition, 48 h

Dear reader, for each entry below, please note its TGI.
1. c1cc(CNC2C3CCC(C3)C2c2c[nH]c3ccccc23)cc(CNC2C3CCC(C3)C2c2c[nH]c3ccccc23)c1 (stereo not given)
2. CCN(CC)CCNc1n[n+]([O-])c2ccccc2[n+]1[O-]
3. COc1cc(/C=C2\CCC(C)C3=C2NC(=S)NC3c2cc(OC)c(OC)c(OC)c2)cc(OC)c1OC (stereo not given)
4. CCOC(=O)C(CS)NC(=O)CCCCCCCC(=O)NC(CS)C(=O)OCC (stereo not given)
5. NC(N)=NS(=O)(=O)c1ccc(NC(=O)c2ccc3nc4ccccc4c(Nc4ccc(S(N)(=O)=O)cc4)c3c2)cc1
6. COC(=O)[C@@]12CCCC(=O)[C@@H]1[C@H]1CCCC[C@H]12
7. O=C1CCC(O)=C1O

OUT:
1. 3.34 µM
2. 44 µM
3. > 100 µM
4. > 100 µM
5. > 100 µM
6. > 100 µM
7. > 100 µM

====

Please provide measured TGI for the entries that follow.
- System: SF-539 CNS
- test-description: NCI tumour cell line growth inhibition, 48 h

Use these answered entries as a reference point.
[
  {
    "compound": "COC(=O)C1=C(CS(=O)c2ccccc2[N+](=O)[O-])ON(C)C1c1ccccc1 (stereo not drawn)",
    "tested-target": "SF-539 CNS",
    "TGI": "56.2 µM"
  },
  {
    "compound": "C/C(O)=C/c1nc2ccc([N+](=O)[O-])cc2nc1/C=C(/C)O",
    "tested-target": "SF-539 CNS",
    "TGI": "> 100 µM"
  },
  {
    "compound": "O=C(NCc1ccc(Cl)cc1)c1cc2sccc2nc1C(F)(F)F",
    "tested-target": "SF-539 CNS",
    "TGI": "70 µM"
  },
  {
    "compound": "COc1cc(S(=O)(=O)Nc2ccc(C3=NNC(c4ccccc4)C3)cc2)ccc1F (stereo not drawn)",
    "tested-target": "SF-539 CNS",
    "TGI": "> 100 µM"
  },
  {
    "compound": "O=c1[nH]nc(Cc2ccccc2)n1-n1cnnc1",
    "tested-target": "SF-539 CNS",
    "TGI": "> 100 µM"
  }
]

Dear reader, for each entry below, please note its TGI.
1. CCN(CC)C1CC(n2cc(C)c(=O)[nH]c2=O)OC1CO (stereo not drawn)
2. Cc1cc(-c2nnc3n2CCCCC3)c(C)n1-c1ccc(Cl)c(Cl)c1

OUT:
1. > 100 µM
2. 32.4 µM

Dear reader, for each entry below, please note its TGI.
1. CCC(c1cccc(O)c1)C(CC)c1cccc(O)c1 (stereo not drawn)
2. CCN(CC)CCCC(C)Nc1c2ccc(C)cc2nc2ccc(OC)cc12 (stereo not drawn)

OUT:
4.72 µM
3.98 µM

====

- System: SN12C renal
- test-description: NCI tumour cell line growth inhibition, 48 h
Please provide measured TGI for the entries that follow.
Give bare numbers, in µM.

Use these answered entries as a reference point.
[
  {
    "compound": "COC(=O)C1=C(C(=O)OC)SC(=C(Cl)C(=S)Sc2ccccc2N)S1",
    "TGI / µM": 59.4
  },
  {
    "compound": "c1ccc2c(Cc3nnc4sc(SSc5nn6c(Cc7c[nH]c8ccccc78)nnc6s5)nn34)c[nH]c2c1",
    "TGI / µM": 56.3
  },
  {
    "compound": "COc1cc2c(/C=C3/C(=O)N(c4ccccc4)c4ccccc43)c(Cl)[nH]c2cc1C",
    "TGI / µM": 6.29
  }
]

Dear reader, for each entry below, please note its TGI.
1. O=C1CC(=O)OC(c2ccc([N+](=O)[O-])cc2)O1
2. CC1(C)C2CCC3(C2)CS(=O)(=O)N2OC231 (stereo unspecified)

OUT:
1: 4.23; 2: 31.6

====

- System: IGROV1 ovarian
- test-description: NCI tumour cell line growth inhibition, 48 h
measurement-name: TGI

Use these answered entries as a reference point.
[
  {
    "compound": "Cc1c(-c2ccccc2)c(C#N)c2nnc(C(N)=O)c(N)n12",
    "TGI": "> 100 µM"
  },
  {
    "compound": "CC1CCN(CC(=O)N2c3ccccc3Sc3cc4ccccc4cc32)CC1",
    "TGI": "> 100 µM"
  },
  {
    "compound": "OC12CC/C(=N/OCc3ccccc3)CC1c1ccccc12 (centres undefined)",
    "TGI": "> 100 µM"
  },
  {
    "compound": "Nc1ccc(S(=O)(=O)NCc2nccs2)cc1",
    "TGI": "56.8 µM"
  }
]

Dear reader, for each entry below, please note its TGI.
1. Cc1c2c(OCCCCN3CCN(c4ncccn4)CC3)nn(C)c(=O)c2c(C)n1-c1ccccc1
2. CCCCOCn1c(=O)[nH]c(=O)c2cc(Br)ccc21
3. O=Cc1ccc(-c2cccs2)s1

OUT:
["35 µM", "> 100 µM", "47.4 µM"]

Dear reader, for each entry below, please note its TGI.
1. CN(Cc1cnc2nc(N)nc(N)c2n1)c1ccc(C(=O)NC(CCC(=O)NC(P(=O)(O)O)P(=O)(O)O)C(=O)O)cc1 (centres undefined)
2. C=C(C=O)CCCC(C)[C@@H]1CCC23CC12CCC1[C@@]2(C)CCC(OC(C)=O)C(C)(C)C2CC(OC2OC(COC(C)=O)C(O)C(O)C2O)[C@]13C (some centres undefined)

OUT:
["> 100 µM", "7.9 µM"]

====

- Test system: LOX IMVI melanoma
- test-description: NCI tumour cell line growth inhibition, 48 h; in the data active means GI50 below about 0.43 µM; inactive means the rest
Your answer must be one of the following: TRUE for active, FALSE for inactive

Field: example entries. Status: answers known.
[
  {
    "compound": "COC(=O)CCC1=C(C)/C(=C/c2[nH]c(-c3ccc[nH]3)cc2OC)N=C1C",
    "assigned-category": "TRUE"
  },
  {
    "compound": "COc1ccc(Cn2c(Cl)c(/C=C3/C(=O)Nc4ccccc43)c3cc(OC)c(C)cc32)cc1",
    "assigned-category": "FALSE"
  },
  {
    "compound": "COc1ccc(Cl)cc1Nc1nc(C(F)(F)F)ccc1C(=O)N/N=C/c1cc(OC)c(OC)c(OC)c1",
    "assigned-category": "FALSE"
  },
  {
    "compound": "COc1cc2nc(-c3ccc(C(F)(F)F)cc3)cc(OCCCN3CCCCC3)c2cc1OC",
    "assigned-category": "TRUE"
  }
]

IN: Would you mind telling me which call this test gave O=[N+]([O-])c1ccc2c(c1)[O][Sn]([I])([I])[O]2 ?
OUT: FALSE

IN: Would you mind telling me which call this test gave C[C@]12CC[C@@H]3c4ccc(O)cc4C(O)C[C@H]3[C@@H]1CCC2=O (some centres not stated) ?
OUT: FALSE
